Experiment: NCI Yeast Anticancer Drug Screen. Data for the bub3 strain (AID 167)
Conditions: S. cerevisiae bub3 mutant strain, at 50.0 µM, stronger effect = higher value
This is part of a sample that, as a whole, favours compounds with a hit. Of some 79,000 tested, about 15% had one in any assay.
Each entry below carries its recorded growth inhibition.

Molecule | growth inhibition / %
O=c1[nH]nnc2ccccc12 | 17.9
O=C(O)c1cnc2cc3c(cc2c1Nc1cccc(C(F)(F)F)c1)OCO3 | 29.4
NC(N)=NS(=O)(=O)c1ccc(Nc2c3ccccc3nc3c(C(=O)Nc4ccc(S(N)(=O)=O)cc4)ccc(Cl)c23)cc1 | -2.25
COC(=O)CCC(=O)Nc1cc(Cl)ccc1Cl | -4.15
Cc1cc(C)c(CC(=O)NCC(=O)NN)c(C)c1 | -12
CC(C)=CCc1c(C)cc2cc3c(c(O)c2c1O)C(O)=CC(=O)C3(CC=C(C)C)C/C=C(\C)CO (configuration not stated) | 48.9
Cc1ccccc1N=Nc1c(C)nc(N)nc1-c1ccccc1 | -14.5
CCOC(=O)C(c1ccccc1)C(Cc1ccccc1)(c1ccccc1)c1ccccc1 (configuration not stated) | -4.6
Cn1ccccc1=O | 3.4
ClSC(c1ccccc1)(c1ccccc1)c1ccccc1 | -30.9
CC(C)(O)CCC(C)(C)O | 0.5
CC(C)NCC(O)COc1cccc2ccccc12 (configuration not stated) | 14.9

###

Assay: NCI Yeast Anticancer Drug Screen. Data for the bub3 strain (AID 167)
Settings: S. cerevisiae bub3 mutant strain, at 50.0 µM, stronger effect = higher value
Compounds without any hit were thinned out: in the full panel of roughly 79,000, 15% have a hit.

Compound | growth inhibition [%]
C=CCOC(=O)/C=C\C(=O)OCC=C | 9.1
CCCOc1ccc(C(=O)C(C(c2ccccc2)N2CCOCC2)N2CCOCC2)cc1 (configuration not stated) | 35.8
OCC(O)CNc1ncnc2ccccc12 (configuration not stated) | 1.7
Oc1ccccc1C=Nc1ccc(Cl)cn1 | 18.9
Nc1nc(N)c(N=Nc2ccc(Cl)cc2Cl)c(=O)[nH]1 | 14.8
N#C/C(=C1\OC(=O)C(c2ccc(Br)cc2)=C1O)c1ccc(Br)cc1 | -3.85
COC1OC(CS(=O)(=O)O)C(O)C(O)C1O (configuration not stated) | -31.9
CC(=O)OC1c2ccccc2C(=O)C1(OC(C)=O)c1ccccc1 (configuration not stated) | -10.9
Cc1ccc2sc3nc4ccccc4nc3c2c1 | 5.8
CNc1ncnc2[nH]ncc12 | -7.05
N#CC1(c2nc3ccccc3o2)C(=O)C(=O)N(C2C3CC4CC(C3)CC2C4)C(=O)C1=O (configuration not stated) | -5.75
CCO/N=C(\C(=O)NO)c1ccccc1 | -1.9

###

Experiment: NCI Yeast Anticancer Drug Screen. Data for the mec2-1 strain (AID 157)
Settings: S. cerevisiae mec2-1 strain, at 50.0 µM, stronger effect = higher value
Compounds without any hit were thinned out: in the full panel of roughly 79,000, 15% have a hit.
Reported metric: growth inhibition (%)

Compound | Reported metric | Reading
O=C(N/N=C1\C(=O)N(c2nccs2)C(=O)C(=O)C1c1nc2ccccc2s1)c1ccccc1O (configuration not stated) | growth inhibition | 16.9
C/C=C\CCCCCCCCCCCCCCCC | growth inhibition | -12.1
CC(C)Oc1c(N(C)CCO)c2cc(Cl)ccc2oc1=O | growth inhibition | 12.4
CCOC(=O)CCC(Cl)(Cl)Cl | growth inhibition | -9.95
CC(=O)N1C(=O)NC(=O)C1(C)c1cccs1 (configuration not stated) | growth inhibition | -8.9
CSc1ccc(NC(=O)c2ccc([N+](=O)[O-])cc2)cc1 | growth inhibition | 5.6
C/C(=C/C(C)O)c1ccccc1 (configuration not stated) | growth inhibition | -3.85
COc1ccc(C(CC(=O)O)c2ccc(OC)cc2OC)cc1 (configuration not stated) | growth inhibition | 0.8
CCOC(=O)c1c(C(=O)Nc2ccccc2)c(-c2ccccc2)n(NC(N)=O)c1C | growth inhibition | 5.95
Nc1nc(CCC(=O)Nc2cccc(C(F)(F)F)c2)cc(-c2cccc3ccccc23)n1 | growth inhibition | 17.4
CC1(C)CC(c2c[nH]c3ccccc23)=CC2=Nc3ccccc3C21O (configuration not stated) | growth inhibition | 6.7
COc1cc(C)nc2ccc(C(=O)c3ccccc3)cc12 | growth inhibition | 6.1
